- measuredTarget: MEX3A (UniProt A1L020)
- Sequence: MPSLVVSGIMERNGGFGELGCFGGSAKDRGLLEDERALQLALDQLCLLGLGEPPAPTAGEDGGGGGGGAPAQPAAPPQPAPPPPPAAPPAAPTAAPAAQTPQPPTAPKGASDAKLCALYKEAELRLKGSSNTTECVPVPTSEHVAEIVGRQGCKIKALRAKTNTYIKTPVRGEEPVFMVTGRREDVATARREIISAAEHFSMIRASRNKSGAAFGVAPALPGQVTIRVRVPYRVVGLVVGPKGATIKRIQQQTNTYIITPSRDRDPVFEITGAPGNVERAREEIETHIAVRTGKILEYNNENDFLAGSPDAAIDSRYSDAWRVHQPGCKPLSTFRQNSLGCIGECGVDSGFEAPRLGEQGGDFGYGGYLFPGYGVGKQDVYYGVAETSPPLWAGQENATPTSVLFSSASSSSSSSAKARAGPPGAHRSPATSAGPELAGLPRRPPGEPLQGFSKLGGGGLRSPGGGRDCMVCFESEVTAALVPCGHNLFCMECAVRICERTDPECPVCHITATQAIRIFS
- assayNotes: Kd (EC50 corrected by depletion factor)
endpointLabel: pKd
Notebook: values listed as pKd are -log10 of the concentration (mol/L).

Short answer for AAUAAA : pKd was 6.27

Query sequence follows.
Reported pKd ( UAUUUAU ) = 6.56

====

- measuredTarget: MRPS7 (UniProt Q9Y2R9)
- assayNotes: Kd (EC50 corrected by depletion factor)
endpointLabel: Kd
Number first, unit second.

So, UAUUUAU ? Its Kd was 29.4 nM

====

- measuredTarget: PTBP3 (UniProt O95758)
- Sequence (O95758 whole entry): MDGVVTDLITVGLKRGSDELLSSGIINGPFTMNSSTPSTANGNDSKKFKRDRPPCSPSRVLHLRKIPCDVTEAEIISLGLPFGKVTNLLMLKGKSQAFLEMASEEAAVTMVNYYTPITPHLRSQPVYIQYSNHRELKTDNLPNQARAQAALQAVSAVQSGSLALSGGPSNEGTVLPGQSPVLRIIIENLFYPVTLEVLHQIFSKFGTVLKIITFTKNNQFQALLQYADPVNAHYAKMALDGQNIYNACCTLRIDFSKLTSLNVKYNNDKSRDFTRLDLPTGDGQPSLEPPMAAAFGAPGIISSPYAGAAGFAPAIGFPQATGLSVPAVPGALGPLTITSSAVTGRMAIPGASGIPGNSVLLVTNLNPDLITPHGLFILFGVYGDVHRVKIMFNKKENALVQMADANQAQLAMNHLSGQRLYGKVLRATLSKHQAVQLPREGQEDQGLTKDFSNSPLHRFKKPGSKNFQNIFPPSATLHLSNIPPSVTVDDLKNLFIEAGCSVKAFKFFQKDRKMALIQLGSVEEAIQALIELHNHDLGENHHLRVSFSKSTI
- assayNotes: EC50 of free RNA motif oligo competing protein binding to immobilised probe
endpointLabel: EC50 (µM)
The reply should contain only the number, in µM.

Memo: AAUAAA , reported EC50: 6.99

====

The sequences listed here are annotated with their pKd.
- measuredTarget: SRSF9 (UniProt Q13242)
- Sequence (Q13242 whole entry): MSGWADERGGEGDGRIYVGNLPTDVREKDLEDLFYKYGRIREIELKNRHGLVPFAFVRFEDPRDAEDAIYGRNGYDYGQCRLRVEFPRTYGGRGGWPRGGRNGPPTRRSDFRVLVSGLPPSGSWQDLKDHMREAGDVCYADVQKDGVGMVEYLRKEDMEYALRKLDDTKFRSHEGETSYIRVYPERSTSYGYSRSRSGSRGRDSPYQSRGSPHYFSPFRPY
- assayNotes: Kd (EC50 corrected by depletion factor)
The quantity pKd is defined as the negative base-10 logarithm of the molar concentration.

pKd in this record for CUGUCCU : 5.65

Briefly, pKd measured for UAUUUAU : 5.23

====

- measuredTarget: CSNK2B (UniProt P67870)
- Sequence (P67870 whole entry): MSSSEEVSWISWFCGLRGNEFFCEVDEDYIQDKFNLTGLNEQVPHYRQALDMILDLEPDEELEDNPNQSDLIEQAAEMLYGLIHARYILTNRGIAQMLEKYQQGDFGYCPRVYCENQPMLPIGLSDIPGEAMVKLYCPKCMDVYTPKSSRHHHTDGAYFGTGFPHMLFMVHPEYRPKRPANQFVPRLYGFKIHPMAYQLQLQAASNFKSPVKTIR
- assayNotes: Kd (EC50 corrected by depletion factor)
endpointLabel: pKd
Scale: negative log10 of molar concentration, which is what pKd denotes.

Query AAUAAA yields pKd of 5.65

====

- measuredTarget: TRIM56 (UniProt Q9BRZ2)
- Sequence: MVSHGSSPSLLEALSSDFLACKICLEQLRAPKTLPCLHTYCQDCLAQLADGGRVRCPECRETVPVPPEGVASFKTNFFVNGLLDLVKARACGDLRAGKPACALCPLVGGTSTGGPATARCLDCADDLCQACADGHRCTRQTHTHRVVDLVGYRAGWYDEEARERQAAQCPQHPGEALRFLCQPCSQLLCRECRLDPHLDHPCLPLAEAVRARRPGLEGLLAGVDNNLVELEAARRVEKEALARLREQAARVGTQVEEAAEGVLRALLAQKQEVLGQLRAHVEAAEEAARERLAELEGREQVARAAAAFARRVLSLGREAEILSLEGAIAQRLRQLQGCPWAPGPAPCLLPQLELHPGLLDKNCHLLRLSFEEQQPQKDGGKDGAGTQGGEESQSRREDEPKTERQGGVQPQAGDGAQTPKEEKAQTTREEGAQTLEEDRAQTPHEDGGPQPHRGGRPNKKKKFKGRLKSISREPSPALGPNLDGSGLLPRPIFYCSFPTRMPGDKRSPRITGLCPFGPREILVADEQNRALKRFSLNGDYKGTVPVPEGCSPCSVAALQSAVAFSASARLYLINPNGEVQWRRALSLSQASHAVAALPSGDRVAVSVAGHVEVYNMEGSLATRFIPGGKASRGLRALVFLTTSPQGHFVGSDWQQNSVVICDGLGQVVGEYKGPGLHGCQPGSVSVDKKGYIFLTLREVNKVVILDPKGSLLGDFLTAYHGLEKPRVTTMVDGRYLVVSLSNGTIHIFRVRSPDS
- assayNotes: EC50 of free RNA motif oligo competing protein binding to immobilised probe
endpointLabel: EC50
Numeric answer plus unit only.

In plain terms, UAUUUAU has a documented EC50 of 3.45 µM

====

Catalogue of sequences with associated pEC50
- measuredTarget: MEX3A (UniProt A1L020)
- Sequence: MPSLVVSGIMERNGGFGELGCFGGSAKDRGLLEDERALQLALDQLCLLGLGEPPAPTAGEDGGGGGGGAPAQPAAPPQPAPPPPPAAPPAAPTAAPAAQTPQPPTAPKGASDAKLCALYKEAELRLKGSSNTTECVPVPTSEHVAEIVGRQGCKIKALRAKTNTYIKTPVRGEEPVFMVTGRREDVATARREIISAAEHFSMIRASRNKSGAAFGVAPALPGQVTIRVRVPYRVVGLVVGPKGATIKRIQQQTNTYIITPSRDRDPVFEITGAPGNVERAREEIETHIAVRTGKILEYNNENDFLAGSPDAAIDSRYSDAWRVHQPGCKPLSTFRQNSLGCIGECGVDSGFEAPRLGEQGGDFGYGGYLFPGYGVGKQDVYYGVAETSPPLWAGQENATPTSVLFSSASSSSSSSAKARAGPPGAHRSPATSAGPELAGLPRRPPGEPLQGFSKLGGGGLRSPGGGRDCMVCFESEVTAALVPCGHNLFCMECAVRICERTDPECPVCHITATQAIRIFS
- assayNotes: EC50 of free RNA motif oligo competing protein binding to immobilised probe
# log scale: pEC50 equals minus log10 of the concentration in mol/L

Form: sequence = AAUAAA ; pEC50 = 5.83

Kindly review the next sequence as well.
So, UAUUUAU ? Its pEC50 was 6.00

====

Below, each entry is listed with its recorded Kd.
- measuredTarget: ELAVL2 (UniProt Q12926)
- Sequence (Q12926 whole entry): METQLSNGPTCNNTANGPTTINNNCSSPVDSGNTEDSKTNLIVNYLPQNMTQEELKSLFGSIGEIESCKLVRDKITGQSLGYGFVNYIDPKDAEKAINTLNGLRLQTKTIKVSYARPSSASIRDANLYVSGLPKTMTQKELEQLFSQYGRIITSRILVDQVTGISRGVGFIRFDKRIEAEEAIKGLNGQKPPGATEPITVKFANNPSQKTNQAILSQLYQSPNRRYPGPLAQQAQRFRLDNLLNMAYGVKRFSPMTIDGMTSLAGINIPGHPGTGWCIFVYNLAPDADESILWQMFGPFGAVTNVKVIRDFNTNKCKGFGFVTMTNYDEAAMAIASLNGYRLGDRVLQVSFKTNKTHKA
- assayNotes: Kd (EC50 corrected by depletion factor)
Number only, in µM; omit the unit.

For this sequence ( AAUAAA ), measured Kd is 8.83

# next sequence below
Looking up UAUUUAU , I found its Kd recorded as 3.67

====

- measuredTarget: HNRNPU (UniProt Q00839)
- Sequence (Q00839 whole entry): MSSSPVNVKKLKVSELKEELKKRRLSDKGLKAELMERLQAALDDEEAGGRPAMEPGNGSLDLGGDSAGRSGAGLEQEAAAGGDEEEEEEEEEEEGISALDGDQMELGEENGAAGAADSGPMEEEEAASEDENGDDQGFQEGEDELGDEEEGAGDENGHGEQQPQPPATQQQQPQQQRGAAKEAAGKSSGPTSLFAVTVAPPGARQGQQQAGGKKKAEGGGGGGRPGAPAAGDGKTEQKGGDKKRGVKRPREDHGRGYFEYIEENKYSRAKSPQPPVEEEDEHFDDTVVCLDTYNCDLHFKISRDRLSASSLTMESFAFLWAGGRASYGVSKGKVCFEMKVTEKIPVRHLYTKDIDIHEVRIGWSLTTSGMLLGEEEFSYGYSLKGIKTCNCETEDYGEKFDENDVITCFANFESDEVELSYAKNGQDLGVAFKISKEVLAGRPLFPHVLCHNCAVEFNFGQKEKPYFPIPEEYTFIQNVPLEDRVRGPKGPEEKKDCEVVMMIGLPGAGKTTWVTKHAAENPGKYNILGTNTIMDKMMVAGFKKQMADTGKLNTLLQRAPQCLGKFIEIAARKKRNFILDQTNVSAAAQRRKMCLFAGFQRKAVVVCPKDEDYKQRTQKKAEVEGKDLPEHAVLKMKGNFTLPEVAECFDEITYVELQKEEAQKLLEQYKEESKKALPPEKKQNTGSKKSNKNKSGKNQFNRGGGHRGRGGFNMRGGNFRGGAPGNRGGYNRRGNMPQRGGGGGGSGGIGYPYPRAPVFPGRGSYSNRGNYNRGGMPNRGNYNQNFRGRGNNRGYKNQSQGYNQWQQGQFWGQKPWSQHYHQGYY
- assayNotes: EC50 of free RNA motif oligo competing protein binding to immobilised probe
endpointLabel: EC50
Don't forget the unit after the value.

Value of measured EC50 for the entry CUGUCCU : 378 nM

====

- measuredTarget: MRPS34 (UniProt P82930)
- assayNotes: EC50 of free RNA motif oligo competing protein binding to immobilised probe
endpointLabel: EC50 (nM)
Use nM as the unit, but write only the number.

Recorded result, UAUUUAU , EC50: 59.7

====

- measuredTarget: PABPC1 (UniProt P11940)
- Sequence (P11940 whole entry): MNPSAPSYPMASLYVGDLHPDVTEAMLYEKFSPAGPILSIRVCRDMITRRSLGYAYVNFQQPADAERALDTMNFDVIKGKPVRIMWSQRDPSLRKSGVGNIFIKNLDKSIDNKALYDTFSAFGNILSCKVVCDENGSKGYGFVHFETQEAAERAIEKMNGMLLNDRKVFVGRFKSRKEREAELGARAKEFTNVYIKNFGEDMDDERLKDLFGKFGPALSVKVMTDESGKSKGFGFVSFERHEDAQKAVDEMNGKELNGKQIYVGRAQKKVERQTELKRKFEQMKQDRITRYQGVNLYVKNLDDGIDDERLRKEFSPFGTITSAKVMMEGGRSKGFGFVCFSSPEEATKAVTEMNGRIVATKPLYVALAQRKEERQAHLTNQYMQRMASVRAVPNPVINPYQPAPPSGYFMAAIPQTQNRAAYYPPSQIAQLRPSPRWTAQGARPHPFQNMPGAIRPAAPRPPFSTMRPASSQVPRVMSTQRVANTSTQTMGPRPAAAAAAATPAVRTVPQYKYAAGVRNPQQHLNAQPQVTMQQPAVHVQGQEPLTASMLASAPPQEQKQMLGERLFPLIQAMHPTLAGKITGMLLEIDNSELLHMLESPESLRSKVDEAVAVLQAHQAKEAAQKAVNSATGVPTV
- assayNotes: EC50 of free RNA motif oligo competing protein binding to immobilised probe
endpointLabel: EC50 (µM)
Numbers only; they are read as µM.

Lab book: EC50 of AAUAAA noted as 10.1

Alright, here's another sequence for you.
Record CUGUCCU , field EC50: 0.199

====

Reported pEC50 values follow for various sequences
- measuredTarget: PATL1 (UniProt Q86TB9)
- Sequence: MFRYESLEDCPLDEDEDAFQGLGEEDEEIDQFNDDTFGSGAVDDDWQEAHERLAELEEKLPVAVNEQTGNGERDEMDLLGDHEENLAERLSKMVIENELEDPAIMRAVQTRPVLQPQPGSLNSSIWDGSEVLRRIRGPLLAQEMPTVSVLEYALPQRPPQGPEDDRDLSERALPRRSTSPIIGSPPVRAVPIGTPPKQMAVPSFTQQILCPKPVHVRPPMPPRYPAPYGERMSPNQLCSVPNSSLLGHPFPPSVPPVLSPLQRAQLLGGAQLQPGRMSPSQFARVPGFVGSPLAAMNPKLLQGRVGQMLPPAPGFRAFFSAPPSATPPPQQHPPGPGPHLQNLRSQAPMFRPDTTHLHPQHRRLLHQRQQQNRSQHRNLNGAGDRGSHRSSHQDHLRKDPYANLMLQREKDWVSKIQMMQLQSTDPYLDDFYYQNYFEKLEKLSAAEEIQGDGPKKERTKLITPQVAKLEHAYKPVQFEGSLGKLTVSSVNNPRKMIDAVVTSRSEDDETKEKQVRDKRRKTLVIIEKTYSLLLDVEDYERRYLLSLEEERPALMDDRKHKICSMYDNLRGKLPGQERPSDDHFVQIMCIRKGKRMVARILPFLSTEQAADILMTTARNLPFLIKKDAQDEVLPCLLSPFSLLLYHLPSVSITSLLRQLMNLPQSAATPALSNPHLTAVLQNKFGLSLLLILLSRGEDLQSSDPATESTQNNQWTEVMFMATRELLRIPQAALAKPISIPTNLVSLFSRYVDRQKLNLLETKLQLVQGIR
- assayNotes: EC50 of free RNA motif oligo competing protein binding to immobilised probe
Entry type: numeric. Quantity: pEC50, the -log10 of concentration in molar units.

What the record says about UAUUUAU : pEC50 is 6.39

Continuing:
The reported pEC50 of the sequence AAUAAA was 6.33
